# target.desc: human recombinant 5-HT2B receptor (Homo sapiens)
# Sequence (P41595 whole entry): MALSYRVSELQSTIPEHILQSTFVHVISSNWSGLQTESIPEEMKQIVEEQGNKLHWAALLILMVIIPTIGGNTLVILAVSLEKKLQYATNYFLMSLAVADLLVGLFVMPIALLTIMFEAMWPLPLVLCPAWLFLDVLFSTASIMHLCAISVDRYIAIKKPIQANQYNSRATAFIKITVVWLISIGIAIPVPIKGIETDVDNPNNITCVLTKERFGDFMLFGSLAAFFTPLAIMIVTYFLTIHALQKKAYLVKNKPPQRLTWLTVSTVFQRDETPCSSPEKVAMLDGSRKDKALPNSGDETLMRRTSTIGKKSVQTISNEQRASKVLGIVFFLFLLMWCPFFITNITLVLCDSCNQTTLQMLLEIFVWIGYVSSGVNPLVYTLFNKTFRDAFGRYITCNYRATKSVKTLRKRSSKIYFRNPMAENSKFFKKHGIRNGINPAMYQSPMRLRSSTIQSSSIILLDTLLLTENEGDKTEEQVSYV
# experiment.description: 5-HT2B receptor radioligand binding ([3H]mesulergine, CHO membranes);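 note: competitive displacement binding on membranes of CHO cells stably expressing the receptor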
pKi: −log10 of the molar value.
recorded.endpoint: pKi

Below: 7 compounds and their reported pKi.
CCC(C)n1nc2c(c1-c1ccccc1)CCNCC2 (stereo not drawn): 8.19
Fc1cc(-c2c3c(nn2C2CCCC2)CCNCC3)ccc1Cl: 8.02
Fc1ccc(-c2c3c(nn2C2CCC2)CCNCC3)cc1: 8.52
Fc1ccc(Cn2nc(-c3ccc(Cl)cc3)c3c2CCNCC3)c(F)c1: 7.00
CCC(CC)n1nc2c(c1-c1ccccc1)CCNCC2: 7.62
Cc1ccc(-c2c3c(nn2C2CCCC2)CCNCC3)cc1: 9.19
CC1Cc2nn(C(C)C)c(-c3ccccc3)c2CCN1 (stereo not drawn): 7.00

[A] CCC(C)n1nc2c(c1-c1ccc(C)cc1)CCNCC2 (stereo not drawn)
[B] CC(C)n1nc2c(c1-c1ccc(C(F)(F)F)cc1)CCNCC2
Select the item whose pKi value is smaller, choosing between A and B . State the label of the item chosen.
B
(B: 8.33, A: 9.10)

###

# target.desc: human recombinant 5-HT2C receptor (Homo sapiens, UniProt P28335)
# Sequence (P28335 33-458): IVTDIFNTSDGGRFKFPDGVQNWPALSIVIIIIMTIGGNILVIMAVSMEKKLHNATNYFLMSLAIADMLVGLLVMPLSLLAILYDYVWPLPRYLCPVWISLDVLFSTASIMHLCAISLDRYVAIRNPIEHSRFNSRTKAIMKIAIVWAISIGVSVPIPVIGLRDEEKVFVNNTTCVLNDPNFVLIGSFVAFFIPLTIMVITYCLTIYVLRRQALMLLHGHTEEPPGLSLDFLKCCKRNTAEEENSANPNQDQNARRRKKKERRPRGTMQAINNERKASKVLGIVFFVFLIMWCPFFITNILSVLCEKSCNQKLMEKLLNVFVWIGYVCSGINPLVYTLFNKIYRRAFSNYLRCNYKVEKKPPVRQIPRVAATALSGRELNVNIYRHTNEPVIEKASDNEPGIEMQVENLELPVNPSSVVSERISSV
# experiment.description: 5-HT2C receptor radioligand binding ([3H]mesulergine, CHO membranes);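 note: competitive displacement of the tritiated ligand, using membranes from CHO cells stably transfected with the human receptor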
pKi: −log10 of the molar value.
recorded.endpoint: pKi

Sample answers from the record:
Fc1ccc(-c2nn(Cc3ccccc3)c3c2CCNCC3)cc1: 7.62
Clc1ccc(-c2nn(Cc3ccccc3)c3c2CCNCC3)cc1: 7.13
Clc1ccc(-c2nn(Cc3ccncc3)c3c2CCNCC3)cc1: 5.30
CN1CCc2nn(C3CCCC3)c(-c3ccc(F)cc3)c2CC1: 7.67
Oc1ccc(Cn2nc(-c3ccc(Cl)cc3)c3c2CCNCC3)cc1F: 5.46

[A] Cc1ccc(-c2c3c(nn2C2CCC2)CCNCC3)cc1
[B] CCC(C)n1nc2c(c1-c1ccccc1)CCNCC2 (stereo not shown)
Compare reported pKi values for A and B . Which is lower? In your reply, give the label of the chosen option.
B
(B: 7.22, A: 8.00)

###

# target.desc: 5-HT2A receptor (UniProt P28223)
# experiment.description: 5-HT2A receptor radioligand binding ([3H]ketanserin);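 note: competitive displacement binding on membranes, either from rat cerebral cortex or from NIH3T3 cells stably expressing human 5-HT2A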
# applied.conditions: read-out: Ki 5-HT2A, table does not say whether rat cortex or human recombinant (NIH3T3) receptor
recorded.endpoint: Ki (nM)

c1cc(-c2c3c(nn2C2CC2)CCNCC3)cs1: 60

[A] CC(C)(C)n1nc2c(c1-c1ccccc1)CCNCC2
[B] c1cc(-c2c3c(nn2C2CCCC2)CCNCC3)co1
[C] Fc1ccc(-c2c3c(nn2C2CCC2)CCNCC3)cc1
[D] FC(F)(F)c1ccc(-c2c3c(nn2C2CCCC2)CCNCC3)cc1
Output the entries ranked by Ki from maximum down to minimum. Write the labels in rank order as requested.
B, A, D, C
